The origin of these recorded values is patent US20080181886A1.

Target: T1, Murine APRIL (mouse, UniProt Q9D777 105-241, limits assumed)
T1 sequence (looked up): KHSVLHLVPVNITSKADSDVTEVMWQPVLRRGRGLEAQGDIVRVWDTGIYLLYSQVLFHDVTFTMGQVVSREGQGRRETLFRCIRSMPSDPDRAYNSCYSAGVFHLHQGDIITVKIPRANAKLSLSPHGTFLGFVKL
Experiment: NNS library, phage display;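 note: ligand versus display occurrence-to-degeneracy ratio and higher means enriched by binding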
Each entry below carries its reported F' APRIL.
Form rule: numeric answer, no unit written next to it.

Reference set (5 entries):
SLSCRKEQGKHYDHLLRDCISCASICGQHPKQCAYFCENKLR (receptor, phage library variant, format as m9) [TACI_d2 F78H] ... 0
SLSCRKEQGKFYDHLLHDCISCASICGQHPKQCAYFCENKLR (receptor, phage library variant, format as m9) [TACI_d2 R84H] ... 0
SLSCRKEQGKFYDHLLFDCISCASICGQHPKQCAYFCENKLR (receptor, phage library variant, format as m9) [TACI_d2 R84F] ... 9
SLSCRKEQGKFYDHLLRDCISCASVCGQHPKQCAYFCENKLR (receptor, phage library variant, format as m9) [TACI_d2 I92V] ... 6
SLSCRKEQGKFFDHLLRDCISCASICGQHPKQCAYFCENKLR (receptor, phage library variant, format as m9) [TACI_d2 Y79F] ... 4

Entry SLSCRKEQGKFLDHLLRDCISCASICGQHPKQCAYFCENKLR (receptor, phage library variant, format as m9) [TACI_d2 Y79L] : reported F' APRIL = ?
0
